Data origin: the RNAGym collection of RNA variant scans (doi:10.7554/elife.90254)

B1: LINE1-full (parent)
chain: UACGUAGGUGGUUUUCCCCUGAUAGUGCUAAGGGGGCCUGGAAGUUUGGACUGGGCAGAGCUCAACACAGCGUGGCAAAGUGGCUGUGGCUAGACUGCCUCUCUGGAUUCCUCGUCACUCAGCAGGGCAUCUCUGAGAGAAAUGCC

Variants of: B1
Assay: self-cleavage, relative activity (ratio to wild type); higher = more cleavage; in vitro, sequencing; the parent is a self-cleaving ribozyme
self-cleavage for assorted variants

Solved entries:
variant: U15C C90U
self-cleavage: 0.04
--
variant: U26C G127A
self-cleavage: 1.37

Read the next record carefully.
A79U G137A yielded self-cleavage of 1.87
